- target or test system: DNA polymerase beta (Homo sapiens)
- assay: qHTS Assay for Inhibitors of DNA Polymerase Beta
- assay conditions: Pol beta primer extension/strand displacement, fluorescence kinetic; series mostly up to 114 µM
Screen size: about 340,000 compounds; about 4,500 (1.3%) were called active. Roughly 5% stayed inconclusive and do not appear here. Calls come from the whole dose curve; as a rule, active = well fitted inhibition curve with a large enough effect; inconclusive = small, poorly fitted or top-dose-only effect, or another doubt; inactive = no such curve, though single readings can be large or run the other way. The sample holds actives, similar compounds and a random draw of the others, so the mix is not that of the screen.
Field 'call' accepts active, inactive

What is the recorded call for this compound in the test? "CC(C)c1ccc(NC(=O)c2ccc3c(O)c(S(=O)(=O)c4ccccc4)c(=O)[nH]c3c2)cc1"
inactive

What is the recorded call for this compound in the test? "Cc1ccn2c(Nc3ccc4c(c3)OCCO4)c(-c3ccc(C)s3)nc2c1"
inactive

What is the recorded call for this compound in the test? "COc1ccccc1NC(=O)COC(=O)Cc1ccc(S(=O)(=O)N2CCCCC2)s1"
inactive

What is the recorded call for this compound in the test? O=C(CC(c1ccccc1)c1cc(Cl)ccc1O)NCCN1CCOCC1 (stereo unspecified)
inactive

What is the recorded call for this compound in the test? O=C(NC1CCCCC1)C1CCCN(S(=O)(=O)c2ccc(Br)s2)C1 (stereo unspecified)
inactive

What is the recorded call for this compound in the test? "Oc1cccc(/C=N/Nc2ccc(Cl)nn2)c1O"
active

What is the recorded call for this compound in the test? "COc1cc2ccccc2cc1C(=O)Nc1cccc(-c2nc3ccccc3o2)c1"
inactive

What is the recorded call for this compound in the test? "O=C(Cc1ccc(S(=O)(=O)N2CCCC2)s1)NC1CCCCCC1"
active

What is the recorded call for this compound in the test? O=C(NC1CCCCC1)C1CCCN(S(=O)(=O)c2cccs2)C1 (stereo unspecified)
inactive

What is the recorded call for this compound in the test? "CCN(CC)S(=O)(=O)c1nnc(NC(=O)COc2ccccc2Cl)s1"
inactive

What is the recorded call for this compound in the test? "CCS(=O)(=O)c1cc([N+](=O)[O-])c(Sc2ccccc2N)s1"
inactive

---

- target or test system: DNA polymerase beta (Homo sapiens) (UniProt P06746)
- assay: qHTS Assay for Inhibitors of DNA Polymerase Beta
- assay conditions: Pol beta primer extension/strand displacement, fluorescence kinetic; series mostly up to 114 µM
About 4,500 (1.3%) of roughly 340,000 compounds were called active. About 5% were inconclusive and are not listed. Calls follow the shape of the dose curve; as a rule, active = well fitted inhibition curve with a large enough effect; inconclusive = small, poorly fitted or top-dose-only effect, or another doubt; inactive = no such curve, though single readings can be large or run the other way. The sample holds actives, similar compounds and a random draw of the others, so the mix is not that of the screen.
Field 'call' accepts active, inactive

What is the recorded call for this compound in the test? "Cc1nn(-c2ccc(F)cc2)c(-n2cccc2)c1C(=O)N1CCN(c2ccccc2)CC1"
inactive

What is the recorded call for this compound in the test? "Cc1nn(-c2ccccc2)c(-n2cccc2)c1C(=O)O"
inactive

What is the recorded call for this compound in the test? "Cc1ccc(-n2nc(C)c(C(=O)O)c2-n2cccc2)cc1"
active

What is the recorded call for this compound in the test? "COc1ccc(NC(=O)Cn2nnc(C(=O)NCCc3ccc(OC)c(OC)c3)c2N)cc1"
inactive

What is the recorded call for this compound in the test? "CC(C)c1ccc(NC(=O)Cn2nnc(C(=O)NCCc3ccccc3)c2N)cc1"
active

What is the recorded call for this compound in the test? "COc1ccc(CNC(=O)c2nnn(CC(=O)Nc3cc(C)cc(C)c3)c2N)cc1"
active

---

- target or test system: DNA polymerase beta (Homo sapiens) (UniProt P06746)
- assay: qHTS Assay for Inhibitors of DNA Polymerase Beta
- assay conditions: Pol beta primer extension/strand displacement, fluorescence kinetic; series mostly up to 114 µM
Out of some 340,000 compounds screened, about 4,500 (1.3%) were called active. About 5% were inconclusive and are not listed. Calls follow the shape of the dose curve; as a rule, active = well fitted inhibition curve with a large enough effect; inconclusive = small, poorly fitted or top-dose-only effect, or another doubt; inactive = no such curve, though single readings can be large or run the other way. Many of the other results were omitted from the sample, so actives are more common in it than they were.
Field 'call' accepts t (active), f (inactive)

What is the recorded call for this compound in the test? "COc1cc(C(=O)NCCS(=O)(=O)N2CCN(c3ccccc3)CC2)cc(OC)c1OC"
f

What is the recorded call for this compound in the test? "CC(C)c1ccc(Nc2nnc(SCC(=O)c3nnc(-c4ccccc4)o3)s2)cc1"
t

What is the recorded call for this compound in the test? "Cc1nnc(SCC(=O)NC2CCCC2)s1"
f

What is the recorded call for this compound in the test? Cc1nnc(SCC2=C(C(=O)O)N3C(=O)C(NC(=O)Cn4nc(C)c(Cl)c4C)C3SC2)s1 (stereo unspecified)
t

What is the recorded call for this compound in the test? "Clc1cccc(-c2nc3nc4ccccc4nc3n2Cc2ccco2)c1"
f

What is the recorded call for this compound in the test? "COc1ccc(OCC(=O)Nc2ccc(NC(=O)c3ccco3)c(C)c2)cc1"
f

What is the recorded call for this compound in the test? "Cc1ccc(Nc2c(-c3ccc(N(C)C)cc3)nc3nc[nH]n23)cc1"
f

What is the recorded call for this compound in the test? CCC1C/C(=C/c2cccs2)C(=O)/C(=C/c2cccs2)C1 (stereo unspecified)
f

What is the recorded call for this compound in the test? "CC(C)Nc1nnc(SCC(=O)c2c[nH]c3ccccc23)s1"
f

What is the recorded call for this compound in the test? Cc1cccc(NC(=O)C2CC(=O)OC23CCCC3)c1 (stereo unspecified)
t

What is the recorded call for this compound in the test? "CCOc1ccccc1NC(=O)CN1CCCN(Cc2cccc(Cl)c2)S1(=O)=O"
f

What is the recorded call for this compound in the test? "CCc1cccc(C)c1Nc1c(-c2ccc(N(C)C)cc2)nc2ncccn12"
f

What is the recorded call for this compound in the test? "COc1ccc(NC(=O)c2ccco2)cc1NC(=O)COc1ccc(C)c(C)c1"
t

What is the recorded call for this compound in the test? CC(C)(C)C1C/C(=C/c2ccco2)C(=O)/C(=C/c2ccco2)C1 (stereo unspecified)
t

What is the recorded call for this compound in the test? "Cc1ccc(OCC(=O)NCCCNC(=O)c2ccco2)cc1C"
f

What is the recorded call for this compound in the test? "COc1cc(/C=N/NC(=O)CNC(=O)c2ccncc2)ccc1OC(C)=O"
f

What is the recorded call for this compound in the test? "CCOc1ccc(OCC)c(NC(=O)CN(c2ccc(C)cc2)S(=O)(=O)c2c(C)n[nH]c2C)c1"
f

What is the recorded call for this compound in the test? "Cc1cc(C)c2oc(C(=O)Nc3ccc(S(=O)(=O)N(C)c4ccccc4)cc3)cc(=O)c2c1"
f

What is the recorded call for this compound in the test? "COc1ccc(/C=N\NC(=O)c2sc(N)nc2C)cc1OC"
t

What is the recorded call for this compound in the test? "O=C(NCc1ccccc1)c1ccc2c(c1)nc1n2CCCCC1"
f

What is the recorded call for this compound in the test? "COc1cccc(OCc2cc(/C=N/NC(=O)c3nc(Cl)c(Cl)c(N)c3Cl)ccc2OC)c1"
f
